Target: VBC ternary complex (pVHL, Elongin B, Elongin C) (UniProt P40337 1-213; Q15370 1-104; Q15369 17-112)
Test: BLI
Ends that are not written are not given here.
measure: Kd (mM)
Give the number; mM is assumed, so skip it.

Worked cases, Kd given:
binder	measure	readout.units	reading
MSAKPRVV-NH2 [8-mer Cul2 peptide, Leu3 replaced by alanine]	Kd	mM	2.9
MSLKPRAV-NH2 [8-mer Cul2 peptide, Val7 replaced by alanine]	Kd	mM	2.1
MALKPRVV-NH2 [8-mer Cul2 peptide, Ser2 replaced by alanine]	Kd	mM	7.1

Tell us which Kd value is on record for MSLKPRVA-NH2 [8-mer Cul2 peptide, Val8 replaced by alanine]
0.5

Tell us which Kd value is on record for ASLKPRVV-NH2 [8-mer Cul2 peptide, Met1 replaced by alanine]
2.8
